The values you see were collected from patent US9040523B2.

- System: Microsporum canis B68128
- experimentalDetails: Antifungal activity in vitro (resazurin susceptibility screen), Inf. B
- Assay type: cell-based
- settings: Microsporum canis, B68128, Microsporum canis B68128; 27 °C, 9 days, resa time 24 hours; read-out: Inf. B pIC50 (converted)
Record form. Attribute: IC50. Fill in for each entry.
Numbers only, in nM.

givenSmiles | systemName | measuredAttribute | reading
CC(=O)c1ccc(C2=NCc3c(Cl)cc(Cl)cc3-n3cccc32)cc1 | Microsporum canis B68128 | IC50 | 100
CC(=O)c1ccc(C2=NCc3c(Cl)cccc3-n3cccc32)cc1 | Microsporum canis B68128 | IC50 | 200

Now let's try a different one.
[Q] Identify IC50 associated with the compound CC(=O)c1ccc(C2=NCc3ccc(Cl)cc3-n3cccc32)cc1
[A] 2000

====

- systemName: Cytochrome P450 2D6 (Homo sapiens)
- Sequence (P10635 whole entry): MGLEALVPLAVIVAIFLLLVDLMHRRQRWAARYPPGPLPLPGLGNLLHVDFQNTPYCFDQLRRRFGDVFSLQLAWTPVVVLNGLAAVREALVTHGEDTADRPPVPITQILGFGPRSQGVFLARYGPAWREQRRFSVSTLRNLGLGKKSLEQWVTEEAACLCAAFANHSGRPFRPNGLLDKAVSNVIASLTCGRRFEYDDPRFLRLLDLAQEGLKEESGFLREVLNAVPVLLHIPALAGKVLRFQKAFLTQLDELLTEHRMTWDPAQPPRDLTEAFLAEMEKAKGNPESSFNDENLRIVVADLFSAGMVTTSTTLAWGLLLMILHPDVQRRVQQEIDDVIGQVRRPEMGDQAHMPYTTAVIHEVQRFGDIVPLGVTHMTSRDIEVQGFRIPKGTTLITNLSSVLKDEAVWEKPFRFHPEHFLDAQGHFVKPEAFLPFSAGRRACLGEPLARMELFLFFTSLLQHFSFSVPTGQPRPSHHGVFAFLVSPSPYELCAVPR
Record form. Attribute: IC50. Fill in for each entry.

Example entries begin here.
compound | IC50
CC(=O)c1ccc(C2=NCc3c(Cl)cccc3-n3cccc32)cc1 [drawing 91] | > 10 µM
CC(O)c1ccc(C2NCc3c(Cl)cccc3-n3cccc32)cc1 (stereo not drawn) [drawing 97] | > 10 µM

Now let's try a different one.
[Q] Identify IC50 associated with the compound CCc1ccc(C2=NCc3c(Cl)cccc3-n3cccc32)cc1 [drawing 92]
[A] > 10 µM

====

- Tested on: Aspergillus fumigatus B42928
- experimentalDetails: Antifungal activity in vitro (resazurin susceptibility screen), Inf. E
- Type: cell-based
- settings: Aspergillus fumigatus B42928; 27 °C, 48 hours, resa time 17 hours
- Procedure: The standard susceptibility screen was performed in 96-well plates (U-bottom, Greiner Bio-One). […] These serial dilutions (10 n1) were then spotted onto test-plates that could be stored in the dark at 4° C. for a maximum period of 2 weeks. […] The different fungal species/isolates (Table 3a) were cryopreserved and 1/1000 diluted in medium just prior to use. A standard inoculum of 200 μl containing 10^3 colony-forming unit (cfu) was then added to each well. […]
Record form. Attribute: Inf. E pIC50. Fill in for each entry.

compound | measuredAttribute | reading
CC(=O)c1cccc(C2NCc3c(Cl)cc(Cl)cc3-n3cccc32)c1.Cl (centres unmarked) [Compound 10] | Inf. E pIC50 | <4.2
CC(O)c1ccc(C2NCc3cc(Cl)cc(Cl)c3-n3cccc32)cc1.Cl (centres unmarked) [Compound 3] | Inf. E pIC50 | <4.2
CC(O)c1ccc(C2NCc3c(ccc(Cl)c3Cl)-n3cccc32)cc1.Cl (centres unmarked) [Compound 2] | Inf. E pIC50 | <4.2
CC(=O)c1ccc(C2NCc3c(Cl)cc(Cl)cc3-n3cccc32)cc1.Cl (centres unmarked) [Compound 12] | Inf. E pIC50 | <4.2

Now let's try a different one.
[Q] Identify Inf. E pIC50 associated with the compound Br.CC(=O)c1ccc(C2NCc3c(Cl)cccc3-n3cccc32)cc1 (centres unmarked) [Compound 6]
[A] 4.5

====

Record form. Attribute: log10 of IC50. Fill in for each entry.
- Tested on: Trichophyton rubrum B68183
- experimentalDetails: Antifungal activity in vitro (resazurin susceptibility screen), Inf. C
- Type: cell-based
- settings: Trichophyton rubrum B68183; 27 °C, 7 days, resa time 24 hours; read-out: Inf. C pIC50 (converted)
Log scale reminder: IC50 in nM, then log10 taken.

molecule | reading
CC(=O)c1ccc(C2NCc3c(Cl)cc(Cl)cc3-n3cccc32)cc1 (centres unmarked) [Compound 11] | 3.30
CC(=O)c1ccc(C2=NCc3c(F)cccc3-n3cccc32)cc1 [Compound 20] | 2.00
CS(=O)(=O)c1ccc(C2=NCc3c(Cl)cccc3-n3cccc32)cc1 [Compound 28] | 3.30
CS(=O)(=O)c1ccc(C2=NCc3c(Cl)cc(Cl)cc3-n3cccc32)cc1 [Compound 30] | 3.30
CC(=O)c1cc(C2NCc3c(Cl)cc(Cl)cc3-n3cccc32)ccc1F (centres unmarked) [Compound 13] | 3.30
CC(=O)c1ccc(C2=NCc3cc(Cl)cc(Cl)c3-n3cccc32)cc1 [Compound 26] | 1.90
CC(=O)c1ccc(C2=NCc3c(F)cc(F)cc3-n3cccc32)cc1 [Compound 24] | 2.10
CC(=O)c1ccc(C2NCc3ccc(Cl)cc3-n3cccc32)cc1 (centres unmarked) [Compound 8] | 3.30

Dear colleague, could you send me log10 of IC50 for each of the items below? Thanks.
1. CC(=O)c1ccc(C2=NCc3ccc(Cl)cc3-n3cccc32)cc1 [Compound 18]
2. CC(=O)c1ccc(C2=NCc3c(Cl)cccc3-n3cccc32)cc1 [Compound 17]
3. CC(=O)c1ccc(C2=NCc3c(Cl)cc(Cl)cc3-n3cccc32)cc1 [Compound 22]

[A]
1: 2.50; 2: 1.60; 3: 1.70

====

Record form. Attribute: hCYP1A2_CEC_Pct_Inh. Fill in for each entry.
- systemName: UniProtKB P05177
- Sequence (P05177 whole entry): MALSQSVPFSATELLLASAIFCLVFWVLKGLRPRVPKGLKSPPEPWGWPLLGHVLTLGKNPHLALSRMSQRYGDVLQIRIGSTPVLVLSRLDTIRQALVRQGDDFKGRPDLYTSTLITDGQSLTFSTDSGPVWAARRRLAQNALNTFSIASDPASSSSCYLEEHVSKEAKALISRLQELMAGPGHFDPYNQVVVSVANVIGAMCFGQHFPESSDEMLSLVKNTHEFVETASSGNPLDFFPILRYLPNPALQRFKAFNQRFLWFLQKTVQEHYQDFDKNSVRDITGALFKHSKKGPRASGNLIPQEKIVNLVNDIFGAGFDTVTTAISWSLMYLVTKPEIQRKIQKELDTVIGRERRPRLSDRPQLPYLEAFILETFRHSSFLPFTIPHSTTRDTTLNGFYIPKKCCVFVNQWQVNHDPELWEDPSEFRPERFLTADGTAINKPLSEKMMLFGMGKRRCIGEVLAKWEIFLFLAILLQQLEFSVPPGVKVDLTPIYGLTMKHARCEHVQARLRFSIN
- experimentalDetails: Cytochrome P450 inhibition, Protocol A, cDNA expressed proteins, fluorogenic substrate
- Format: in vitro ADME
- settings: % inhibition at 10 μM; substrate CEC; cDNA expressed protein
Numbers only, in %.

Example entries begin here.
molecule | hCYP1A2_CEC_Pct_Inh (%)
CCc1ccc(C2NCc3c(Cl)cccc3-n3cccc32)cc1.Cl (stereo not drawn) | 48
CC(=O)c1ccc(C2=NCc3c(ccc(Cl)c3Cl)-n3cccc32)cc1.Cl | 27
CCc1ccc(C2=NCc3ccc(Cl)cc3-n3cccc32)cc1 | 40
CC(=O)c1ccc(C2=NCc3c(F)cccc3-n3cccc32)cc1 | 18
CC(=O)c1cc(C2=NCc3c(Cl)cccc3-n3cccc32)ccc1F | 44

Now let's try a different one.
[Q] Identify hCYP1A2_CEC_Pct_Inh associated with the molecule CC(=O)c1ccc(C2=NCc3c(Cl)ccc(Cl)c3-n3cccc32)cc1
[A] 21

====

Record form. Attribute: IC50. Fill in for each entry.
- Tested on: Aspergillus fumigatus B42928
- experimentalDetails: Antifungal activity in vitro (resazurin susceptibility screen), Inf. E
- Format: cell-based
- settings: Aspergillus fumigatus B42928; 27 °C, 48 hours, resa time 17 hours; read-out: Inf. E pIC50 (converted)

Example entries begin here.
compound | IC50
CC(=O)c1cc(C2=NCc3c(Cl)cc(Cl)cc3-n3cccc32)ccc1F | > 63.1 µM
CC(=O)c1ccc(C2NCc3c(Cl)cc(Cl)cc3-n3cccc32)cc1 (stereo not drawn) | > 63.1 µM

Now let's try a different one.
[Q] Identify IC50 associated with the compound CC(=O)c1ccc(C2NCc3cc(Cl)cc(Cl)c3-n3cccc32)cc1.Cl (stereo not drawn)
[A] > 63.1 µM

====

- System: Microsporum canis B68128
- experimentalDetails: Antifungal activity in vitro (resazurin susceptibility screen), Inf. B
- Type: cell-based
- settings: Microsporum canis B68128; 27 °C, 9 days, resa time 24 hours
Record form. Attribute: Inf. B pIC50. Fill in for each entry.

compound | Inf. B pIC50
CC(=O)c1cccc(C2NCc3c(Cl)cc(Cl)cc3-n3cccc32)c1.Cl (stereo not drawn) | 5.3

Dear colleague, could you send me Inf. B pIC50 for each of the items below? Thanks.
1. Cl.OCCc1ccc(C2NCc3cc(Cl)cc(Cl)c3-n3cccc32)cc1 (stereo not drawn)
2. CC(O)c1ccc(C2NCc3cc(Cl)cc(Cl)c3-n3cccc32)cc1.Cl (stereo not drawn)
3. Cl.OCCc1ccc(C2NCc3c(Cl)cccc3-n3cccc32)cc1 (stereo not drawn)
4. CC(=O)c1ccc(C2=NCc3c(ccc(Cl)c3Cl)-n3cccc32)cc1.Cl
5. Cl.OCCc1ccc(C2NCc3c(Cl)ccc(Cl)c3-n3cccc32)cc1 (stereo not drawn)

[A]
4.3
5.0
4.4
<4.2
5.7
